- TEST_TARGET: Vasopressin V2 receptor (Rattus norvegicus)
- EXPERIMENTAL_PROTOCOL: Selectivity ratio of antidiuretic Vasopressin V2 receptor ED /[…] receptor ED
- CONDITION_SUMMARY: Urine
Recorded measurements of Ratio, one per entry
The reply should be a number, written without any unit.

Some solved entries appear below for comparison.
STRUCTURE_SMILES_STRING	Ratio
CCOc1ccc(C[C@@H](NC(=O)Cc2ccccc2)C(=O)N[C@@H](Cc2ccccc2)C(=O)N[C@H](C(=O)N[C@@H](CC(N)=O)C(=O)N[C@@H](CCCN)C(=O)N2CCC[C@@H]2C(=O)N[C@@H](CCCN=C(N)N)C(=O)N[C@@H](CCCN=C(N)N)C(N)=O)C(C)C)cc1	14
NCCCC[C@H](NC(=O)[C@H](CC(N)=O)NC(=O)[C@H](CCC(N)=O)NC(=O)[C@H](Cc1ccccc1)NC(=O)[C@@H](Cc1ccc(O)cc1)NC(=O)Cc1ccccc1)C(=O)N1CCC[C@@H]1C(=O)N[C@@H](CCCN=C(N)N)C(N)=O	59
CC(C)[C@H](NC(=O)[C@H](Cc1ccccc1)NC(=O)[C@@H](Cc1ccc(O)cc1)NC(=O)CC12CC3CC(CC(C3)C1)C2)C(=O)N[C@@H](CC(N)=O)C(=O)N[C@@H](CCCN=C(N)N)C(=O)N1CCC[C@@H]1C(=O)N[C@@H](CCCN=C(N)N)C(=O)N[C@@H](CCCN=C(N)N)C(N)=O	4.3

Query: Query for Vasopressin V2 receptor (Rattus norvegicus): what Ratio does the record show for COc1ccc(C[C@@H](NC(=O)Cc2ccccc2)C(=O)N[C@@H](Cc2ccccc2)C(=O)N[C@H](C(=O)N[C@@H](CC(N)=O)C(=O)N[C@@H](CCCCN)C(=O)N2CCC[C@@H]2C(=O)N[C@@H](CCCN=C(N)N)C(N)=O)C(C)C)cc1 ?
Reply: 35

Query: Query for Vasopressin V2 receptor (Rattus norvegicus): what Ratio does the record show for CCOc1ccc(C[C@@H](NC(=O)CC23C[C@H]4C[C@@H](C2)C[C@@H](C3)C4)C(=O)N[C@@H](Cc2ccccc2)C(=O)N[C@H](C(=O)N[C@@H](CC(N)=O)C(=O)NCCCC(=O)N2CCC[C@@H]2C(=O)N[C@@H](CCCN=C(N)N)C(=O)N[C@@H](CCCN=C(N)N)C(N)=O)C(C)C)cc1 ?
Reply: 0.44

Query: Query for Vasopressin V2 receptor (Rattus norvegicus): what Ratio does the record show for CCOc1ccc(C[C@@H](NC(=O)Cc2ccccc2)C(=O)N[C@@H](Cc2ccccc2)C(=O)N[C@@H](CCC(N)=O)C(=O)N[C@@H](CC(N)=O)C(=O)N[C@@H](CCCCN)C(=O)N2CCC[C@@H]2C(=O)N[C@@H](CCCN=C(N)N)C(N)=O)cc1 ?
Reply: 570

Query: Query for Vasopressin V2 receptor (Rattus norvegicus): what Ratio does the record show for CCOc1ccc(C[C@@H](NC(=O)CC(C)(C)C)C(=O)N[C@@H](Cc2ccccc2)C(=O)N[C@H](C(=O)N[C@@H](CC(N)=O)C(=O)N[C@@H](CCCN=C(N)N)C(=O)N(C)[C@@H](C)C(=O)N[C@@H](CCCN=C(N)N)C(N)=O)C(C)C)cc1 ?
Reply: 53
